Record form. Attribute: Dose.FC.CTG. Fill in for each entry.
# Tested on: ISC-enriched organoids
# Assay protocol: Primary screen, 384-well 2.5-D organoid differentiation (ENR+CD, 6 days, Target Selective Inhibitor Library, vs whole-plate median): ATP (CellTiter-Glo 3D, CTG)
# Assay context: Dose 10.00 uM; ENR+CD, 6 days; FC vs plate median
All answers are understood in log 2 fold change, so give the number only.

Let me know recorded Dose.FC.CTG for COc1cc2c(cc1Cc1cccc(Cl)c1F)c(=O)c(C(=O)O)cn2[C@H](CO)C(C)C , thanks.
−0.737

Let me know recorded Dose.FC.CTG for COc1cccc(C=NCCN=Cc2cccc(OC)c2[O-])c1[O-].[Cl-].[Mn+3] , thanks.
−0.024

Let me know recorded Dose.FC.CTG for Cc1ccc(S(=O)(=O)NC(=O)NN2CC3CCCC3C2)cc1 (stereo not drawn) [Gliclazide] , thanks.
−0.092

Let me know recorded Dose.FC.CTG for C[C@@H]1C(=O)O[C@H]2C[C@@]34[C@H]5C[C@@H](C(C)(C)C)[C@]36[C@@H](OC(=O)[C@@H]6O)O[C@@]4(C(=O)O5)[C@]21O [Ginkgolide A] , thanks.
−0.012

Let me know recorded Dose.FC.CTG for NC1(Cc2ccc(Cl)cc2)CCN(c2ncnc3[nH]ccc23)CC1 [CCT128930, reference compound] , thanks.
−0.175

Let me know recorded Dose.FC.CTG for CCOC(=O)c1ccc(NC2CCCCC2)c(N)c1 , thanks.
−0.046

Let me know recorded Dose.FC.CTG for CNC(=O)c1cc(Oc2ccc(NC(=O)Nc3cc(C(C)(C)C)nn3-c3ccc4ncccc4c3)c(F)c2)ccn1 [DCC-2036 (Rebastinib)] , thanks.
−0.322

Let me know recorded Dose.FC.CTG for NC(=O)C1CCCc2c1[nH]c1ccc(Cl)cc21 (stereo not drawn) [EX 527 (Selisistat)] , thanks.
0.320

Let me know recorded Dose.FC.CTG for O=C(NC(NC(=S)Nc1ccc(F)c([N+](=O)[O-])c1)C(Cl)(Cl)Cl)C(c1ccccc1)c1ccccc1 (stereo not drawn) , thanks.
−0.478

Let me know recorded Dose.FC.CTG for Cc1[nH]c2ccccc2c1CCNC(=O)c1cccs1 , thanks.
−0.169

Let me know recorded Dose.FC.CTG for C[C@]12C=CC(=O)N[C@@H]1CC[C@@H]1[C@@H]2CC[C@]2(C)[C@@H](C(=O)Nc3cc(C(F)(F)F)ccc3C(F)(F)F)CC[C@@H]12 [Dutasteride] , thanks.
−0.057

Let me know recorded Dose.FC.CTG for CCCCCCCCc1ccc(CCC(N)(CO)CO)cc1.Cl [Fingolimod (FTY720) HCl] , thanks.
−1.304

Let me know recorded Dose.FC.CTG for C[C@H]1COC2=C1C(=O)C(=O)c1c2ccc2c1CCCC2(C)C , thanks.
−0.541

Let me know recorded Dose.FC.CTG for OC[C@H]1O[C@@H](c2ccc(Cl)c(Cc3ccc(O[C@H]4CCOC4)cc3)c2)[C@H](O)[C@@H](O)[C@@H]1O , thanks.
−0.134

Let me know recorded Dose.FC.CTG for Cn1cc(C2=C(c3cn(C4CCN(Cc5ccccn5)CC4)c4ccccc34)C(=O)NC2=O)c2ccccc21 , thanks.
−0.081

Let me know recorded Dose.FC.CTG for Nc1ncnc2n[nH]c(Nc3ccc(F)cc3)c12 , thanks.
0.055

Let me know recorded Dose.FC.CTG for COc1cc(Nc2ncc(F)c(Nc3ccc4c(n3)N(COP(=O)(O)O)C(=O)C(C)(C)O4)n2)cc(OC)c1OC [Fostamatinib (R788)] , thanks.
−0.881

Let me know recorded Dose.FC.CTG for CCOC(=O)c1cncn1[C@H](C)c1ccccc1 [Etomidate] , thanks.
0.039
